Source of measurements: paper PMC8464984

# target: T1, phAimR^C6S/C74S/C99S/C136S/C223S/C267S/N103C, labelled with Alexa488 and Cy5 (Bacillus phage phi3T, UniProt P0DOE3 1-378, C6S | C74S | C99S | C136S | C223S | C267S | N103C, Alexa Fluor 488 C5 maleimide or Cy5 maleimide on the cysteine at N103C)
# T1 construct: AimR of Bacillus phage phi3T (GenBank KY030782.1), six solvent-exposed cysteines changed to serine and N103C added for labelling; One dye per chain; the doubly labelled species is a dimer with Alexa488 on one subunit and Cy5 on the other; also called phAimR (N103C labeling site); N103C dye-labeling; source: E. coli BL21 (DE3), purified in the same way as the wild-type phAimR, dye-conjugated, …
# T1 sequence: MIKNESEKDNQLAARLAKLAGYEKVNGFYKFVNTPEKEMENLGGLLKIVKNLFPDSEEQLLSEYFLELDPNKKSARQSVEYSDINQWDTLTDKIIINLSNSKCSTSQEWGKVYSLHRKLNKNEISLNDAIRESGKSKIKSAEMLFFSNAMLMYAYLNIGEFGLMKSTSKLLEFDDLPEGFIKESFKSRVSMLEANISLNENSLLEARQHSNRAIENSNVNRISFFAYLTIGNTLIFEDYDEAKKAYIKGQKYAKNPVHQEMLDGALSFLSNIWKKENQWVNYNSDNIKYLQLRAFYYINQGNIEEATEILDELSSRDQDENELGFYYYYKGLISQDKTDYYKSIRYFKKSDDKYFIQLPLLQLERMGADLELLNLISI
# test.summary: FRET or BRET; smFRET in solution; about 100 pM doubly labelled (Alexa488/Cy5) phAimR, peptide titrated; KD from the population of the enriched FRET state; 25 C, 20 mM Tris-HCl pH 7.5, 100 mM NaCl, 0.005% Tween 20, 1 mM L-ascorbic acid, 1 mM methylviologen
# experimental.parameters: both partners purified

binder	Kd
SAIRGA (mature arbitrium peptide processed from the AimP pro-peptide (43 amino acids) of Bacillus phage phi3T; also called SAIRGA peptide; phi3T-derived peptide) [phi3T arbitrium peptide (SAIRGA)]	41.5 nM
